log10(IC50): recorded values
Test system: CEM cells HIV-1 protection, formazan growth assay
Test: NCI AIDS Antiviral Assay
Conditions: measured here: growth of uninfected CEM cells
Could you please treat all values as log10 of IC50 in µM?

// known answers, use as guide
CCc1ccccc1NC(=O)C(=O)CC(=O)c1sc(Nc2ccccc2Cl)nc1C ... 1.94
C#CCOC(=O)[C@@H](C)c1ccc2cc(OC)ccc2c1 ... 1.68
COc1ccc(Cc2c(-c3ccc(C)cc3)n[nH]c(=O)c2C2C(=O)N(c3ccccc3)N=C2c2ccccc2)cc1 (stereo not given) ... 1.58
O=[N+]([O-])c1ccc2n[nH]nc2c1 ... 2.26
COC(=O)C(=O)C(C(=O)C1=NS(=O)(=O)c2cc(S(N)(=O)=O)c(Cl)cc2N1)c1nc2ccc(C(=O)c3ccccc3)cc2[nH]c1=O (stereo not given) ... 1.69
CCCCCCCCCCNCCSSCc1ccc(OC)cc1 ... 0.53

Exam item: Return reported log10(IC50). Input compound: COc1ccc2c(c1)OC[C@@H]1c3cc(NS(=O)(=O)c4ccccc4)cc(OC)c3O[C@H]21
Marked response: 1.26

Exam item: Given the compound COC(=O)[C@H](Cc1ccccc1)NC(=O)N(CCNC(=O)OC(C)(C)C)c1ccccc1 , write its reported log10(IC50).
Marked response: 2.01

Exam item: Please report the measured log10(IC50) for COc1ccccc1C1CC(=O)CC(c2ccccc2OC)C12C(=O)NC(=S)NC2=O (stereo not given)
Marked response: 1.67
